tested on: ES-2 (Ovarian Carcinoma); assay: Bliss excess, mean over the matrix (fraction); higher = more synergy;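 note: after 72 h of two-drug dosing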
Cut-off 0.0006 on Bliss excess, inclusive. At or above means YES; below means NO.

Here's what some known entries look like.
CC1(C)CCC(CN2CCN(c3ccc(C(=O)NS(=O)(=O)c4ccc(NCC5CCOCC5)c([N+](=O)[O-])c4)c(Oc4cnc5[nH]ccc5c4)c3)CC2)=C(c2ccc(Cl)cc2)C1 [Venetoclax] + CCN(CCO)CCCOc1ccc2c(Nc3cc(CC(=O)Nc4cccc(F)c4)[nH]n3)ncnc2c1 [AZD2811] (first compound max 1 µM, 7x7, partner max 1 µM) ... NO
CC1(C)CCC(CN2CCN(c3ccc(C(=O)NS(=O)(=O)c4ccc(NCC5CCOCC5)c([N+](=O)[O-])c4)c(Oc4cnc5[nH]ccc5c4)c3)CC2)=C(c2ccc(Cl)cc2)C1 [Venetoclax] + Cc1cc2ncnn2cc1Nc1ncc2c(n1)n(C1CCOCC1)c(=O)n2C [AZD7648] (first compound max 1 µM, 7x7, partner max 10 µM) ... NO

// switching to the query compound
INPUT: Check if Bliss excess >= 0.0006 (inclusive). Item: C=CCn1c(=O)c2cnc(Nc3ccc(N4CCN(C)CC4)cc3)nc2n1-c1cccc(C(C)(C)O)n1 [AZD1775] + C[C@@H]1COCCN1C2=NC(=NC(=C2)C3(CC3)[S@](=N)(=O)C)C4=C5C=CNC5=NC=C4 [AZD6738] (first compound max 1 µM, partner max 10 µM)
OUTPUT: YES

This collection of values is drawn from the supplement of paper PMC11061612.
